- Test system: MRCKB;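 also: KINOMEscan kinase panel screen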
- Construct: gene CDC42BPB
- stated_conditions: concentration: 1 μM, replicates: in singlicate; n = 1
measurement_label: %Inh (%)
State the answer as a number, implicitly in %.

Prompt line: Return %Inh (reported value) for this compound: `COc1cc2ncn(-c3cc(OCc4ccncc4)c(C(N)=O)s3)c2cc1OC`
Response line: 0

Prompt line: Return %Inh (reported value) for this compound: `COC(=O)c1c(-c2ccccc2)c2cc(Br)ccc2c(=O)n1Cc1ccc(S(C)(=O)=O)cc1`
Response line: 0

Prompt line: Return %Inh (reported value) for this compound: `Cc1ccc(Oc2ccc(Nc3ncnc4cc[nH]c34)cc2C)cn1`
Response line: 0

Prompt line: Return %Inh (reported value) for this compound: `COc1cccc(C2=C(N(C)c3ccccc3)C(=O)NC2=O)c1`
Response line: 0

Prompt line: Return %Inh (reported value) for this compound: `Cc1cc(Nc2nc(-c3cccc(C)n3)nc3ccccc23)ccn1`
Response line: 0

Prompt line: Return %Inh (reported value) for this compound: CCS(=O)c1ccc(-c2coc3ccc(-c4nnc(C)o4)cc23)cc1 (stereo not drawn)
Response line: 0

Prompt line: Return %Inh (reported value) for this compound: `CCCC(=O)Nc1n[nH]c2ncc(-c3cccc4ccccc34)cc12`
Response line: 17

Prompt line: Return %Inh (reported value) for this compound: `COc1ccc(-c2cc3c(C)nc(N)nc3n([C@H]3CC[C@H](O)CC3)c2=O)cn1`
Response line: 30

Prompt line: Return %Inh (reported value) for this compound: `O=C(Nc1n[nH]c2cc(-c3ccccc3F)ccc12)C1CC1`
Response line: 0
